test system: NCI-H23 lung; assay: NCI tumour cell line growth inhibition, 48 h
# reported TGI; entries follow

Incoming: Which TGI is listed for O=C(NCCNCCO)N/N=C/c1cccc([N+](=O)[O-])c1 ?
Outgoing: > 100 µM

Incoming: Bench note: what TGI did OCC1SC(n2cnc3cncnc32)C(O)C1O (configuration not stated) show?
Outgoing: > 100 µM

Incoming: Could you tell me which TGI is on file for Cc1oc2ccccc2c(=O)c1Cn1nnc2ccccc21 ?
Outgoing: > 100 µM

----------
test system: T-47D breast; test: NCI tumour cell line growth inhibition, 48 h
readoutType: TGI

Here's what some known entries look like.
compound: COc1ccc(-c2nc(-c3nc4ccc(F)cc4[nH]3)cc3c2[nH]c2ccccc23)cc1
readoutValue: > 100 µM
//
compound: Cc1cc(-c2ccc(C(=O)C(Cl)(Cl)Cl)[nH]2)on1
readoutValue: > 100 µM
//
compound: O=C(CCSC(CC(=O)c1ccc(Cl)cc1)c1ccc(Cl)cc1)Nc1ccc(Cl)cc1 (stereo not given)
readoutValue: 22.2 µM
//
compound: COC(=O)C(=O)C(C(=O)C(=O)Nc1ccccc1C(=O)OC)c1nc2ccc(C(=O)c3ccccc3)cc2[nH]c1=O (stereo not given)
readoutValue: > 100 µM
//
compound: OCC1SC(n2cnc3cncnc32)C(O)C1O (stereo not given)
readoutValue: > 100 µM
//
compound: Cc1cc(N(CCCl)CCCl)ccc1C=Nc1cccnc1
readoutValue: > 73.2 µM

Incoming: Param readout = TGI; param system = T-47D breast; param query = O=c1cnn(C2OC(CO)C(O)C(F)C2O)c(=O)[nH]1 (stereo not given) ; response: value
Outgoing: > 100 µM

Incoming: Record Cc1oc2ccccc2c(=O)c1Cn1nnc2ccccc21 : what is its TGI with T-47D breast?
Outgoing: 44.2 µM

Incoming: TGI of COc1ccc(-n2c(CCCC(=O)O)nc3c2C(=O)c2ccccc2C3=O)cc1 on T-47D breast?
Outgoing: > 100 µM

Incoming: Hello, I am looking for reported TGI with T-47D breast for N#CC(c1ccc(O)cc1)N1CCN(C(C#N)c2ccc(O)cc2)CC1 (stereo not given) . Could you help?
Outgoing: > 82.9 µM

----------
test system: EKVX NSCLC; experiment: NCI tumour cell line growth inhibition, 48 h
readoutType: TGI

molecule: O=C(O)CSc1n[nH]c(/C=C/c2ccccc2)n1
studySystem: EKVX NSCLC
TGI: > 100 µM

Incoming: Recorded TGI of C[N+]1(C)CC=C(N2CCOCC2)CC1 , please.
Outgoing: > 10 µM

Incoming: Param item = CCCCCCC1CCC2CCCC(C)N12 (stereo not given) ; retrieve measured TGI.
Outgoing: > 100 µM

Incoming: Give the measured TGI of CCCC[C@@H]1NC(=O)[C@H](CCCCN)NC(=O)[C@H](CCCNC(=N)N)NC(=O)[C@H](CC(C)C)NC(=O)[C@@H](NC(=O)[C@H](Cc2cccc(Cl)c2)NC(=O)[C@@H]2CCCN2C(=O)[C@@H](NC(C)=O)C(C)C)CCSSC[C@@H](C(=O)N[C@@H](CCCCN)C(=O)N2CCC[C@H]2C(=O)N2CCC[C@H]2C(=O)N[C@@H](CCC(=O)O)C(N)=O)NC(=O)[C@H](Cc2ccccc2)NC(=O)[C@H](CO)NC(=O)[C@H](C)NC(=O)[C@@H]2CCCN2C1=O .
Outgoing: > 50 µM

Incoming: Entry under review: CCOc1ccc(NC(=O)Nc2cc(C(C)C)ccc2C)cc1 . Reported TGI?
Outgoing: > 96.7 µM
